The origin of these recorded values is PubChem BioAssay AID504332.

Biological target: Histone-lysine N-methyltransferase EHMT2 (Homo sapiens)
Experiment: qHTS Assay for Inhibitors of Histone Lysine Methyltransferase G9a; note: % is set by controls: 0 for no effect and ±100 for the full control effect; nearly all actives have a fitted effect of over 75% in size
Details: G9a H3K9 monomethylation, AlphaScreen, 2 h; series mostly up to 59 µM
Description: Methylated lysines, on the N-terminal tails of histone proteins serve as epigenetic markers to recruit factors that can then modify local chromatin structure to lead to functional consequences. […] Methylation of biotinylated-histone peptide is measured through specific antibody-based detection, in conjunction with streptavidin-coated donor and anti-IgG antibody-coated acceptor beads. […]
In all, about 350,000 compounds went through this assay and about 31,000 (8.9%) were called active. About 15% were inconclusive and are not listed. The sample holds actives, similar compounds and a random draw of the others, so the mix is not that of the screen.
Entries and their measured activity, negative = inhibition follow.

Example entries begin here.
[[record]]
smiles_notation = "Cn1c(=O)c2cn(-c3cccc4ccccc34)cc2n(C)c1=O"
parameter = "activity, negative = inhibition"
result_value = "5.87% [at 2.33 µM] (inactive)"

[[record]]
smiles_notation = "COc1cc(OC)cc(C(=O)NCC(=O)N2CCCCCCC2)c1"
parameter = "activity, negative = inhibition"
result_value = "12.1% [at 12.7 µM] (inactive)"

[[record]]
smiles_notation = "COC(=O)c1ccc(Cn2c(SCC(=O)N(C)c3ccccc3)nc3ccccc32)cc1"
parameter = "activity, negative = inhibition"
result_value = "-1.12% [at 12.7 µM] (inactive)"

[[record]]
smiles_notation = "COc1ccc(-c2csc3ncnc(N4CCN(S(=O)(=O)c5cccc(F)c5)CC4)c23)cc1"
parameter = "activity, negative = inhibition"
result_value = "-11.1% [at 2.33 µM] (inactive)"

[[record]]
smiles_notation = "Cc1ccc(C)c(OCCC(=O)Nc2cccc(S(=O)(=O)N3CCCC3)c2)c1"
parameter = "activity, negative = inhibition"
result_value = "6.86% [at 0.501 µM] (inactive)"


-- ask Respond only with activity, negative = inhibition recorded for "O=C(CN1CCN(CC(=O)Nc2ccc3c(c2)OCO3)CC1)Nc1ccc(F)cc1"
-- reply -4.1% [at 2.33 µM] (inactive)

-- ask Respond only with activity, negative = inhibition recorded for "CCOC(=O)c1cc(-c2ccccc2C)n(Cc2cc(C)no2)n1"
-- reply -5.1% [at 0.501 µM] (inactive)

-- ask Respond only with activity, negative = inhibition recorded for "COc1ccc(-c2c(-c3cc(OC)cc(OC)c3)n(C)c3ccc(-c4ccn[nH]4)cc23)cc1"
-- reply 2.71% [at 0.501 µM] (inactive)

-- ask Respond only with activity, negative = inhibition recorded for "CC[C@@]12C(=O)N(c3ccccc3)C(=O)N1[C@H](c1ccc(Br)cc1)[C@@H]1C(=O)N(C(C)(C)C)C(=O)[C@@H]12"
-- reply 53.8% [at 2.33 µM] (inactive)

-- ask Respond only with activity, negative = inhibition recorded for "NS(=O)(=O)c1ccc(CCNC(=O)COC(=O)COc2cccc(C(F)(F)F)c2)cc1"
-- reply -4.95% [at 12.7 µM] (inactive)

-- ask Respond only with activity, negative = inhibition recorded for "O=C1C=C(c2cccc(Cl)c2)C[C@@H](c2ccc(F)cc2)C1"
-- reply 6.54% [at 0.501 µM] (inactive)

-- ask Respond only with activity, negative = inhibition recorded for "O=C(Cc1ccc(S(=O)(=O)N2CCOCC2)s1)NCCOc1ccccc1F"
-- reply -25.9% [at 12.7 µM] (inactive)

-- ask Respond only with activity, negative = inhibition recorded for "O=C(Nc1ccccc1)N1CCC(C(=O)N2CCN(Cc3ccccc3)CC2)CC1"
-- reply 9.4% [at 12.7 µM] (inactive)
